Could you please report measured composite z-score for the items listed next?
- STUDY_SYSTEM: Pro-neuregulin-1, membrane-bound isoform (Homo sapiens) (UniProt Q02297)
- Sequence (Q02297 whole entry, looked up, canonical isoform): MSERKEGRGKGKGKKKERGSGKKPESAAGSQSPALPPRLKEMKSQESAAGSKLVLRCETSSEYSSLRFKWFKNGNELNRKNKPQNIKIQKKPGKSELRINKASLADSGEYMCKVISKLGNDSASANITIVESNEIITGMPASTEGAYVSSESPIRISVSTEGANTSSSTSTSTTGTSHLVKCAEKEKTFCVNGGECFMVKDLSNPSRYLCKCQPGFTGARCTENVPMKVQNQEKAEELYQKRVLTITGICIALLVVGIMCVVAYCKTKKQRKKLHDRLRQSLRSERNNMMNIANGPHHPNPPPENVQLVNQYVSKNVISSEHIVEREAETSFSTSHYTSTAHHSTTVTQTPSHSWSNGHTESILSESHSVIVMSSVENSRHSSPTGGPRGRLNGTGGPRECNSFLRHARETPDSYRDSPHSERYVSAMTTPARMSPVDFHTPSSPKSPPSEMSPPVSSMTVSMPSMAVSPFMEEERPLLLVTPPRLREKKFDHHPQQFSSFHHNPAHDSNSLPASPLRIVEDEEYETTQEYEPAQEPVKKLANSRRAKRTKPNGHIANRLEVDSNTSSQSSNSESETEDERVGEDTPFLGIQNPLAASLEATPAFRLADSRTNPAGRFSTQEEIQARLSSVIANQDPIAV
- ASSAY_METHOD_TEXT: small molecules binding neuregulin-1 protein – biochemical, small-molecule microarray, fluorescence 635/667, psychiatric disease protein project, primary screen (AID 1075);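 note: score combines 667 nm spot fluorescence with signal to noise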
- MEASUREMENT_CONDITIONS: NRG1 binding, 635 nm fluorescence, higher = more signal
Answers are plain numbers.

Example molecules with recorded composite z-score:
MOLECULE	STUDY_SYSTEM	composite z-score
Cc1ccccc1C(O)C1C=CC2C(=O)NC(=O)C2N1Nc1ccccn1 (stereo not given)	Pro-neuregulin-1, membrane-bound isoform (Homo sapiens) (UniProt Q02297)	0.401
C=CCN1C(=O)[C@]2(CCS(=O)(=O)c3ccccc3)N=C(c3ccc(OCCCO)cc3)O[C@@H]2c2ccccc21	Pro-neuregulin-1, membrane-bound isoform (Homo sapiens) (UniProt Q02297)	0.445
O=C(O)[C@@H]1C[C@@H]2C(=O)N3CCC[C@H]3C(=O)N2[C@@H]1c1ccc(O)cc1	Pro-neuregulin-1, membrane-bound isoform (Homo sapiens) (UniProt Q02297)	0.956
C=C(C(=O)CC[C@H](OC(=O)c1ccccc1-c1ccccc1C(=O)O)c1cccc(OCCO)c1)C(C)C	Pro-neuregulin-1, membrane-bound isoform (Homo sapiens) (UniProt Q02297)	0.262
CC[C@@H]1O[Si](C(C)C)(C(C)C)c2c1cc(-c1cc(C)c(OC)c(C)c1)nc2-c1ccc(Oc2ccccc2)cc1	Pro-neuregulin-1, membrane-bound isoform (Homo sapiens) (UniProt Q02297)	0.437
C=CC[C@]1(C(=O)N2CCCCC2)N=C(c2ccc(OCCCO)cc2)O[C@H]1c1ccccc1CN=[N+]=[N-]	Pro-neuregulin-1, membrane-bound isoform (Homo sapiens) (UniProt Q02297)	1.17
CCCC[C@@H](O)C1=C(COC)C[C@H]2C(=O)N(C)C(=O)[C@H]2[C@H]1CO	Pro-neuregulin-1, membrane-bound isoform (Homo sapiens) (UniProt Q02297)	-0.321
CN1C(=O)C2C=CC(C(O)c3cccn3C)N(Nc3ccc([N+](=O)[O-])cc3[N+](=O)[O-])C2C1=O (stereo not given)	Pro-neuregulin-1, membrane-bound isoform (Homo sapiens) (UniProt Q02297)	0.392

Below is a list of molecules. For each, state its recorded composite z-score.
1. CCOC(=O)C[C@H]1[C@H](OC(=O)Cc2ccc3c(c2)OCO3)[C@@H](NC(=O)C2CCCCC2)c2cc(OCCCO)ccc2N1C(=O)c1ccccc1
2. CC1CC/C=C\[C@H]2OC34C=CCN(C(C)(C)C)C(=O)[C@H]3N(CCCCCO)C(=O)[C@@H]4C2C(=O)O1 (stereo not given in full)
3. COC(=O)[C@@]1(Cc2ccc(OC)cc2)[C@H]2c3cc(C(=O)N4CCCC4)n(CCO)c3C[C@H]2CN1C(=O)c1ccccc1
4. CCOC(=O)C[C@H]1[C@H](OC(=O)c2ccc(C(=O)c3ccccc3)cc2)[C@@H](NC(=O)c2ccc(-c3ccccc3)cc2)c2cc(OCCCO)ccc2N1C(=O)Cc1ccc(OC)cc1

Reply |
[-0.127, 0.299, 1.77, 0.486]

Below is a list of molecules. For each, state its recorded composite z-score.
1. [N-]=[N+]=Nc1ccccc1C[C@]1(C(=O)O)COC(c2ccc(OCCCO)cc2)=N1
2. Cc1ccc(F)cc1S(=O)(=O)N[C@@H]1CCN(Cc2ccc(Br)cc2)C1
3. NC(=O)NCC#Cc1ccc2c(c1)[C@]1(C(=O)N2)[C@H](C(=O)N2CCN(c3ncccn3)CC2)[C@H]2C(=O)O[C@H](c3ccccc3)[C@H](c3ccccc3)N2[C@@H]1c1ccc(O)cc1
4. COC(=O)c1c(CC[C@@H](CO)NC(=O)N[C@@H](C)Cn2cc(-c3ccccn3)nn2)oc(C(C)=O)c1C(=O)OC
5. COC(=O)C1=CC(CCCO)=CC(c2ccc(CN3CCCC3)cc2)N(Cc2cccc(OC(F)(F)F)c2)C=C1C(=O)OC (stereo not given)
6. O=C1C[C@]2(c3ccc([N+](=O)[O-])cc3)C(=O)N(C3CC3)c3cc(CO)ccc3[C@H]2N1CC12CC3CC(CC(C3)C1)C2

Reply |
0.614
-0.107
0.575
1.66
1.79
-0.0609

Below is a list of molecules. For each, state its recorded composite z-score.
1. CC1CC/C=C\[C@H]2OC34C=CCN(c5ccc(Cl)cc5)C(=O)[C@H]3N(C(C)CO)C(=O)[C@]4(C)C2C(=O)O1 (stereo not given in full)
2. CCCC=C(CCC)[C@@H](NC(=O)c1cccs1)c1ccc(C(=O)OC)cc1

Reply |
[-0.154, 0.028]

Below is a list of molecules. For each, state its recorded composite z-score.
1. O=C1C2C=CC(C(O)c3cccc(O)c3)N(Nc3ccc([N+](=O)[O-])cc3)C2C(=O)N1c1ccccc1 (stereo not given)
2. CC1CC/C=C\[C@H]2OC34C=CCN(C(C)C)C(=O)[C@H]3N(CCO)C(=O)[C@@H]4C2C(=O)O1 (stereo not given in full)
3. CCCC[C@@H](O)C1=C(COc2ccccc2)C[C@H]2C(=O)N(Cc3ccccc3)C(=O)[C@H]2[C@H]1CO
4. COC(=O)[C@@]1(Cc2ccc(F)cc2)[C@H]2c3cc(C(=O)N4CCCC4)n(Cc4ccc(C)c(F)c4F)c3C[C@H]2CN1C(=O)c1ccccc1
5. CC(C)N1CC=CC23O[C@@H]4C=CCCOC(=O)C4[C@H]2C(=O)N(CCCO)[C@@H]3C1=O (stereo not given in full)
6. C=CCNC(=O)[C@H]1[C@@H]2C(=O)O[C@@H](c3ccccc3)[C@@H](c3ccccc3)N2[C@@H](c2ccccc2OCCO)[C@]12C(=O)N(C(=O)OCCOC)c1ccc(C#CC3(O)CCCCCC3)cc12
7. [N-]=[N+]=Nc1ccccc1C[C@@]1(C(=O)NCCN2CCOCC2)N=C(c2ccc(OCCCO)cc2)O[C@@H]1c1ccccc1N=[N+]=[N-]
8. C=C[C@@H](OC)[C@H](OC(=O)Nc1ccc(OC)cc1)c1ccc(O)c(F)c1

Reply |
[0.0076, 1.08, 1.01, 1.29, -0.491, 1.04, 1.69, 0.749]

Below is a list of molecules. For each, state its recorded composite z-score.
1. COc1cc2c(cc1O)C=[N+](Cc1sc3ccccc3c1Cl)CC2
2. CCCNC(=O)[C@@]1(C)c2ccccc2C(=O)N(c2ccc(C)cn2)[C@H]1c1ccc(CO)cc1

Reply |
1: -0.102; 2: 0.638
